STUDY_SYSTEM: T1, human glucagon receptor (human, UniProt P47871 26-477)
T1 construct: whole, on cells; cAMP assay: transfected HEK293 cells
T1 sequence (P47871 26-477): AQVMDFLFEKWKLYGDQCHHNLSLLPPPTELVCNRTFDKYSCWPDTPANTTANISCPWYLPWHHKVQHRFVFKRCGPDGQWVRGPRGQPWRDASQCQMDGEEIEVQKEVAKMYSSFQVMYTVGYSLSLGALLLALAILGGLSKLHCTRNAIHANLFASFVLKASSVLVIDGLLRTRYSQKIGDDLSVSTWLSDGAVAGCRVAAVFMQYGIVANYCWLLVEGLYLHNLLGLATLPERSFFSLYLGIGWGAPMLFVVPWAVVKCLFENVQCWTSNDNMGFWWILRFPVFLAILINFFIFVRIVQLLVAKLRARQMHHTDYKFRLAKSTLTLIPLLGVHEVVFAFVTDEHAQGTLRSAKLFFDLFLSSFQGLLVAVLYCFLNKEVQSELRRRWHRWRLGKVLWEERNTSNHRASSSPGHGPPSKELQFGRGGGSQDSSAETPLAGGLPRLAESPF
ASSAY_INFO: SPA competition vs 125I-glucagon, receptor membranes
Square brackets hold non-standard residues; d marks the D form. Ends that are not written are not given here. MCA = alpha-methylhydrocinnamic acid (2-methyl-3-phenylpropanoic acid); PhLac = O=C(O)[C@@H](O)Cc1ccccc1
Give measured IC50 for each item. Keep answers brief.

Guide cases for IC50, answers given:
Exercise: Quick one: IC50 for [PhLac]TSEYC(PEG 20 kDa)KYLDSRRAQDFVQWLMNT-NH2 [[PLA^6, E^9, C^11(20kDaPEG)]Glucagon(aa6-29)-NH2] ?
Key: 776 nM

Exercise: Tell me the measured IC50 of [PhLac]TSEYSKYLDSRRAQDFVC(PEG 1.2 kDa)WLMNT-NH2 [[PLA^6, E^9,C^24(1.2 kDaPEG)]Glucagon(aa6-29)-NH2] , please.
Key: 4.7 nM

Exercise: Can you share its IC50? I mean this binder: C(PEG 1.2 kDa)FTSEYSKYLDSRRAQDFVQWLMNT-NH2 [[C^5(1.2kDaPEG), E^9]Glucagon(aa5-29)-NH2]
Key: 1080 nM

Exercise: Could you tell me which IC50 is on file for [PhLac]TC(PEG 20 kDa)EYSKYLDSRRAQDFVQWLMNT-NH2 [[PLA^6, C^8(20kDaPEG), E^9]Glucagon(aa6-29)-NH2] ?
Key: 303 nM

Exercise: What does the record list as IC50 for C(PEG 20 kDa)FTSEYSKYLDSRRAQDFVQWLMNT-NH2 [[C^5(20kDaPEG), E^9]Glucagon(aa5-29)-NH2] ?
Key: 331 nM

Okay, next one:
Exercise: IC50 for [MCA]TSEYSKYLDSRRAQDFVC(PEG 20 kDa)WLMNT-NH2 [[MCA^6, E^9, C^24(20kDaPEG)]Glucagon(aa6-29)-NH2] ?
Key: 208 nM
